# MEASURED_ON: recombinant human GR (Homo sapiens)
# Sequence (P04150 whole entry): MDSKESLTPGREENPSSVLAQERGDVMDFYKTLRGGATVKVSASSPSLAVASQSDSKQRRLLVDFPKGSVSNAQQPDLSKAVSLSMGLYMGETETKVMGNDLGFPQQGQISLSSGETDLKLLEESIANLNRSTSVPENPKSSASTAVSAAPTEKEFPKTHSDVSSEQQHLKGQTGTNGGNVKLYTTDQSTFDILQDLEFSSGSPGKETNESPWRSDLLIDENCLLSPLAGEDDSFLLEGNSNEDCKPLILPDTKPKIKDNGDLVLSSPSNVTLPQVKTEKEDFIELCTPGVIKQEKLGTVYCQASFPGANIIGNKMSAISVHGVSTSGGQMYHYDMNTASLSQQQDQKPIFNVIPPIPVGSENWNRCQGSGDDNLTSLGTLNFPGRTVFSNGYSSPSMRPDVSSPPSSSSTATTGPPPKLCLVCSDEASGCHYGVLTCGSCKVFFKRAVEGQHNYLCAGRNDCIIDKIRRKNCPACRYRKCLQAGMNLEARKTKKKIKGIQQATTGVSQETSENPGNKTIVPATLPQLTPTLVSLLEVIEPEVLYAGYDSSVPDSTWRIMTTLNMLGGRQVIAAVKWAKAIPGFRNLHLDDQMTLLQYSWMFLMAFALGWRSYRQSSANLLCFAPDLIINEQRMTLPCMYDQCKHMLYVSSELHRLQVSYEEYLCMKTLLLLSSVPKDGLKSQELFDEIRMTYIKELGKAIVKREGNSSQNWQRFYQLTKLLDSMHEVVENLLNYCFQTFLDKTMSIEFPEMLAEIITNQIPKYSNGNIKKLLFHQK
# PROTOCOL_SUMMARY: Human Glucocorticoid Receptor (GR) Assay, fluorescence polarization (GRhuFL_FP_v2)
# COND: GS Red tracer, 2 hours at room temperature, 100% control 10 μM Dexamethasone
# Method: Human Glucocorticoid Receptor (GR) Assay The assay is based on a commercial kit from Panvera/Invitrogen (Part number P2893). The assay technology is fluorescence polarization. […] The GR and Stabilizing Peptide reagents are stored at −70° C. while the GS Red is stored at −20° C. Also included in the kit are 1M DTT (Panvera, Part number P2325, stored at −20° C.) and GR Screening buffer 10× (Panvera, Part number P2814, stored at −70° C. initially but once thawed stored at room temperature). […]
pIC50: −log10 of the molar value.
READOUT: pIC50

Example entries begin here.
COMPOUND	pIC50
C[C@H](NS(=O)(=O)Cc1ccccc1)[C@H](Oc1ccc2c(cnn2-c2ccc(F)cc2)c1)c1ccccc1	8.23
C[C@H](NS(=O)(=O)C1CCCC1)[C@H](Oc1ccc2c(cnn2-c2ccc(F)cc2)c1)c1ccccc1	8.00
C[C@H](NS(=O)(=O)C1CC1)[C@H](Oc1cccc2c1cnn2-c1ccc(F)cc1)c1ccccc1	7.05
C[C@H](NS(=O)(=O)C1CC1)[C@H](Oc1ccc2c(cnn2-c2ccc(F)cc2)c1)c1ccc2c(c1)OCCO2	8.64
C[C@H](NS(=O)(=O)CCN1C(=O)c2ccccc2C1=O)[C@H](Oc1ccc2c(cnn2-c2ccc(F)cc2)c1)c1ccccc1	8.19

I = O=S(=O)(NC[C@H](Oc1ccc2c(cnn2-c2ccc(F)cc2)c1)c1ccccc1)C1CC1
II = C[C@H](NS(=O)(=O)CCC(F)(F)F)[C@H](Oc1ccc2c(cnn2-c2ccc(F)cc2)c1)c1ccccc1
III = Cc1ccc(-n2ncc3cc(O[C@H](c4ccccc4)C(C)(C)NS(=O)(=O)C4CC4)ccc32)cc1
IV = O=S(=O)(NC[C@@H](Oc1ccc2c(cnn2-c2ccc(F)cc2)c1)c1ccccc1)C1CC1
I would appreciate it if you could sort these 4 compounds by pIC50, starting from the smallest number. Provide the labels, sequenced as the question asks. IV, III, I, II
(IV: 6.60, III: 7.11, I: 7.89, II: 8.37)

a = CC(NS(=O)(=O)C1CC1)C(Oc1cc2cnn(-c3ccc(F)cc3)c2cc1Cl)c1ccc(F)cc1 (racemic)
b = C[C@H](NS(C)(=O)=O)[C@@H](c1ccccc1)S(=O)(=O)c1ccc2c(cnn2-c2ccc(F)cc2)c1
Please let me know which one, a or b , has a lower measured pIC50 value. // return label of chosen record b
(b: 6.55, a: 8.37)

These entries and their values trace back to patent US20120065173A1.
